Data provenance is ChEMBL document CHEMBL3576825.

# Tested on: DU-145
# procedure details: Cytotoxicity against human DU145 cells after 48 hrs by sulforhodamine B assay
# Format: functional
# applied conditions: DU-145, 48 h
measured metric: GI50 (nM)
Numbers only; they are read as nM.

- CC(C)C[C@H]1OC(=O)[C@H](C(C)C)NC(=O)[C@H](C)OC(=O)[C@@H](C(C)C)NC(=O)[C@@H](CC(C)C)OC(=O)[C@H](C(C)C)NC(=O)[C@H](C)OC(=O)[C@@H](C(C)C)NC(=O)[C@@H](CC2CCCCC2)OC(=O)[C@H](Cc2ccc(O)cc2)NC(=O)[C@H](C)OC(=O)[C@@H](C(C)C)NC1=O: 4.3
- CC(C)C[C@H]1OC(=O)[C@H](C(C)C)NC(=O)[C@H](C)OC(=O)[C@@H](C(C)C)NC(=O)[C@@H](CC2CCCCC2)OC(=O)[C@H]([C@@H](C)OC(C)(C)C)NC(=O)[C@H](C)OC(=O)[C@@H](C(C)C)NC(=O)[C@@H](CC(C)C)OC(=O)[C@H](C(C)C)NC(=O)[C@H](C)OC(=O)[C@@H](C(C)C)NC1=O: 5.6

Please find the next compound below.
Reported GI50 of CC(C)C[C@H]1OC(=O)[C@H](C(C)C)NC(=O)[C@H](C)OC(=O)[C@@H](C(C)C)NC(=O)[C@@H](CC(C)C)OC(=O)[C@H](C(C)C)NC(=O)[C@H](C)OC(=O)[C@@H](C(C)C)NC(=O)[C@@H](CC(C)C)OC(=O)[C@H](C(C)C)NC(=O)[C@H](C)OC(=O)[C@@H](C(C)C)NC1=O : 0.36
